Data provenance is paper PMC11369174.

# Experimental System: ABL1 SH3 (Homo sapiens)
# Assay Remarks: GenVar_HD2 ProP-PD phage selection, ABL1 SH3
# Format: binding
# Condition Details: phage selection, bait ABL1_SH3__P00519_60_121; confidence of the enriched peptide
Observed Property: confidence
Give the figure only, with no unit attached.

Lab note: measured confidence of "PLFPPPGEPSLSPLLG" was 3

Lab note: measured confidence of "EPRFSPPPSPPGPAMP" was 4

Lab note: measured confidence of "EPRFSPPHSPPGPAMP" was 3

Lab note: measured confidence of "NGSLVPVPPTTPAPGV" was 2

Lab note: measured confidence of "LDSSEPRFSPPLSPPG" was 2

* * *

Recorded Mutation enrichment score for the following substances
# System: KPNA4 ARM
# Assay Remarks: GenVar_HD2 ProP-PD phage selection, KPNA4 ARM
# Format: binding, human
# Condition Details: bait KPNA4 ARM; from NGS counts of overlapping wild-type/mutant library peptide pairs; positive = mutation enhances, negative = disrupts binding
Give the figure only, with no unit attached.

The cases that follow already have their Mutation enrichment score on record.
>  <Substance>
Ac-LDLDDRWQFKRSQLLD-NH2 [ABRAXAS1_349-364 R361Q]

>  <Mutation enrichment score>
−6

$$$$
>  <Substance>
Ac-YLLDGPPNPERAKLSS-NH2 [CREBBP_5-19 K13E]

>  <Mutation enrichment score>
−6

$$$$
>  <Substance>
Ac-PELWVAHRTAQHLSAT-NH2 [ZNF526_152-167 L160T]

>  <Mutation enrichment score>
−6.4

$$$$

Query substance follows.
Test item Ac-EPSEKCTRLEEEIVEY-NH2 [CDC45_152-166 R157C] ; KPNA4 ARM; reported Mutation enrichment score was −7

* * *

# Experimental System: NEDD4 WW2 (Homo sapiens, UniProt P46934)
# Sequence (P46934 765-803 limits assumed): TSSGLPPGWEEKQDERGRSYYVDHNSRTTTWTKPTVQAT
# Assay Remarks: FP displacement assay, NEDD4 WW2
# Type: binding
# Condition Details: read-out: KD-values [µM] + SEM
Observed Property: Kd (µM)
Enter your answer as a number in µM; do not include the unit.

The cases that follow already have their Kd on record.
>  <Substance>
Ac-PIPGTPPPNYDSLRLQ-NH2 [SCNN1B_611-626 wild-type]

>  <Value Reported>
39

$$$$
>  <Substance>
Ac-PIPGTRPPNYDSLRLQ-NH2 [SCNN1B_611-626 P616R]

>  <Value Reported>
80

$$$$

Lab note: measured Kd of Ac-PIPGTPPRNYDSLRLQ-NH2 [SCNN1B_611-626 P618R] was 603

* * *

Recorded overlap for the following sequences
# Experimental System: ABL1 SH3 (Homo sapiens, UniProt P00519)
# Sequence (P00519 60-121): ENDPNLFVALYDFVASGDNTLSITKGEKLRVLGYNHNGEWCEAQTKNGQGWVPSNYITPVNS
# Assay Remarks: GenVar_HD2 ProP-PD phage selection, ABL1 SH3
# Format: binding
# Condition Details: phage selection, bait ABL1_SH3__P00519_60_121; overlapping peptides
Give the figure only, with no unit attached.

The cases that follow already have their overlap on record.
>  <Macromolecule Sequence>
PLFPPPGEPSLSPLLG

>  <Value Reported>
0

$$$$
>  <Macromolecule Sequence>
NGSLVPVPPTTPAPGV

>  <Value Reported>
0

$$$$
>  <Macromolecule Sequence>
LDSSEPRFSPPLSPPG

>  <Value Reported>
1

$$$$
>  <Macromolecule Sequence>
EPRFSPPHSPPGPAMP

>  <Value Reported>
1

$$$$

Query sequence follows.
Lab note: measured overlap of "EPRFSPPPSPPGPAMP" was 1
